Consider the following compounds and their measured growth readings.
System: MALME-3M melanoma
Experiment: NCI-60 one-dose screen, 48 h (100 = growth as untreated, 0 = no growth, -100 = all killed)
Conditions: 10 µM unless noted
This is part of a sample that, as a whole, favours compounds with a hit. Of some 83,000 tested, about 20% had one in any assay.
metric: growth (%)

> print(dat)
                                    compound        target.desc  metric  reading
 1  O=S(=O)(NCCCNc1cc(-c2c(-c3cccc(O)c3)nc3sccn23)ccn1)c1cccc(Cl)c1  MALME-3M melanoma  growth     48.2
 2  CCOC(=O)c1c2c(n3ccc(NC(=O)OC(C)(C)C)cc13)C(=O)c1ncccc1C2=O  MALME-3M melanoma  growth    -21.6
 3  COc1cc(C2CC(=O)Nc3c2c(C)nn3-c2nc3ccccc3[nH]2)c(OC)c(OC)c1OC (stereo not given)  MALME-3M melanoma  growth     55.1
 4         Cc1ccc(N2CCN(C(=S)c3cccs3)CC2)cc1  MALME-3M melanoma  growth      100
 5  CCCCN(CCCC)CC(C)(C)C(O)c1ccc(OC)c2ccccc12 (stereo not given)  MALME-3M melanoma  growth     47.3
 6   CCN(CC)c1ccc(C(=O)c2ccc(N(CC)CC)cc2)cc1  MALME-3M melanoma  growth     67.2
 7  COc1cc2c(cc1-c1c(C)noc1C)ncc1nc(C3CCCCC3)n(C3CCC(OC(F)F)CC3)c12 (stereo not given)  MALME-3M melanoma  growth     41.7
 8  CCOC(=O)c1c(/C=C/C(=O)O)nc2ccccc2c1/C=C/c1ccccc1  MALME-3M melanoma  growth     51.4
 9    COc1ccc2nc(NNC(=O)c3cnccn3)c3cccn3c2c1  MALME-3M melanoma  growth    -6.33
10  FC(F)(F)c1cc(Nc2ccc3cc(OCCCN4CCOCC4)ccc3n2)ccc1Cl  MALME-3M melanoma  growth     47.4
